Cited source for all entries: patent US7504393B2

target: serotonin re-uptake (Rattus norvegicus, UniProt P31652); construct: synaptosome prepared from rat whole brains except the cerebellums; from tissue; host or cells: synaptosomes from rat whole brain except the cerebellum; test: Serotonin re-uptake inhibitory activity (synaptosome, [3H]5-HT); type: biochemical; settings: synaptosome from rat whole brain except cerebellum; [3H]5-HT, 37° C.; read-out: IC50 (nM) Serotonin re-uptake inhibitory activity
Sequence (P31652 whole entry): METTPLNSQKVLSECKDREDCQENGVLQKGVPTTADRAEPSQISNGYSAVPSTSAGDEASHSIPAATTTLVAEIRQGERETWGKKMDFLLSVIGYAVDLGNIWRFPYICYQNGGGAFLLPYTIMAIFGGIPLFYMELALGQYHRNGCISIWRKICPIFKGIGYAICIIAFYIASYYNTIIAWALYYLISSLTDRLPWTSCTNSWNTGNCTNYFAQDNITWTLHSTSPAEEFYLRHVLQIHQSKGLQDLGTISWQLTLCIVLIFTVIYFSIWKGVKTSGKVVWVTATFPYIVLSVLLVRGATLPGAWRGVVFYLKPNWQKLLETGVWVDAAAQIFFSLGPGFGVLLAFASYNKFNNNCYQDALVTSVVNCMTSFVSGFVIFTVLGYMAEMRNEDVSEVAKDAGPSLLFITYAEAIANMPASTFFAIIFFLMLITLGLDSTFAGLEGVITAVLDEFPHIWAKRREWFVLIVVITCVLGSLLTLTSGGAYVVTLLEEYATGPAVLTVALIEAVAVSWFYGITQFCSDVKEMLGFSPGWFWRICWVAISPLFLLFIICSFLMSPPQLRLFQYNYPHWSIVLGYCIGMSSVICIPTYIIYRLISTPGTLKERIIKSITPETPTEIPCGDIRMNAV
Where a name gives a salt, the structure may show the parent alone.
The reader will find reported log10(IC50) values listed item by item below.
Please be aware that the numbers have been log10-transformed from IC50 in nM.

# count of solved cases: 10
INSERT INTO measurements (compound, result_type, value_measured) VALUES
  ('CN(C)C(=O)Oc1ccc([C@@H](CCOc2ccc([N+](=O)[O-])cc2)N(C)C)cc1 [Test Compound 102, hydrochloride]', 'log10(IC50)', 2.22),
  ('Cc1cc(OCCC2c3ccc(OC(=O)N(C)C)cc3C=CCN2C)ccc1Cl (stereo not drawn) [Test Compound 194, hydrochloride]', 'log10(IC50)', 1.79),
  ('CN(C)C(=O)Oc1ccc([C@@H](CCOc2ccc([N+](=O)[O-])cc2Cl)N(C)C)cc1 [Test Compound 130, hydrochloride]', 'log10(IC50)', 1.94),
  ('CNC(CCOc1ccc(Cl)cc1)c1ccc(OC(=O)N(C)C)cc1 (stereo not drawn) [Test Compound 16, hydrochloride]', 'log10(IC50)', 2.69),
  ('CN(C)C(=O)Oc1ccc(C(CCOc2cccc(F)c2)N(C)C)cc1 (stereo not drawn) [Test Compound 70, hydrochloride]', 'log10(IC50)', 1.93),
  ('CN(C)C(=O)Oc1ccc2c(c1)CCN(C)C2CCOc1ccc([N+](=O)[O-])cc1Cl (stereo not drawn) [Test Compound 189, hydrochloride]', 'log10(IC50)', 2.48),
  ('CN(C)C(=O)Oc1ccc2c(c1)C=CCN(C)[C@@H]2CCOc1ccc([N+](=O)[O-])cc1 [Test Compound 199, hydrochloride]', 'log10(IC50)', 0.78),
  ('CN(C)C(=O)Oc1ccc(C(CCOc2ccc(F)c(F)c2)N(C)C)cc1 (stereo not drawn) [Test Compound 76, hydrochloride]', 'log10(IC50)', 2.09),
  ('CN(C)C(=O)Oc1ccc2c(c1)C=CCN(C)C2CCOc1ccc([N+](=O)[O-])cc1 (stereo not drawn) [Test Compound 192, hydrochloride]', 'log10(IC50)', 1.80),
  ('CN[C@@H](CCOc1cccc(Cl)c1)c1ccc(OC(=O)N(C)C)cc1 [Test Compound 81, hydrochloride]', 'log10(IC50)', 2.36);

Input CNC(CCOc1ccc2ncccc2c1)c1ccc(OC(=O)N(C)C)cc1 (stereo not drawn) [Test Compound 180, hydrochloride] . Output log10(IC50): 2.02

Value of log10(IC50) reported for the compound CN[C@@H](CCOc1ccc([N+](=O)[O-])cc1Cl)c1ccc(OC(=O)N(C)C)cc1 [Test Compound 127, hydrochloride] is 2.93

Entry CN[C@H](CCOc1ccc(Cl)cc1)c1ccc(OC(=O)N(C)C)cc1 [Test Compound 62, hydrochloride] , log10(IC50) reported as 2.54

In plain terms, CN[C@H](CCOc1cccc(Cl)c1)c1ccc(OC(=O)N(C)C)cc1 [Test Compound 61, hydrochloride] has a documented log10(IC50) of 2.26

The compound listed as CN[C@@H](CCOc1ccc(Cl)cc1)c1ccc(OC(=O)N(C)C)cc1 [Test Compound 82, hydrochloride] has a reported log10(IC50) of 2.58
